B1: ACSBG2 (parent)
chain: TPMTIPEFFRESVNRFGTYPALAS

# Variants of: B1
# Protocol Notes: protein stability index of a GFP-peptide fusion (GPS, HEK-293T) (PSI 1-6); higher = more stable;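 note: lentivirally expressed fusions sorted by FACS into six bins by GFP to DsRed ratio, PSI derived from sequencing read proportions per bin multiplied by bin number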
# Stated Conditions: c terminus: a fixed tail appended
Overview of reported protein stability index across a group of variants:
I only need the number, thanks.

S24Q : 2.08

**Q:** I'd like to know its protein stability index. The variant in question is `R10T`
**A:** 2.37

**Q:** Let us now turn to `R10A`
**A:** 2.61

**Q:** Lookup `P20A`
**A:** 1.89

**Q:** Request: `L22W`
**A:** 2.57

**Q:** `F8G` , same question.
**A:** 3.02

**Q:** Try the variant `V13A`
**A:** 2.42

**Q:** Record: `R10E`
**A:** 2.43

**Q:** And `P20Q` ?
**A:** 1.71

**Q:** Field entry: `E7Y`
**A:** 1.52

**Q:** Now consider `I5P` and answer again.
**A:** 2.5
